# STUDY_TARGET: Neu5Ac(b2-6)GalNAc
# PROTOCOL_DESCRIPTION: glycan array binding signal (z-score within array); higher = stronger binding
# MEASUREMENT_CONTEXT: glycan notation: IUPAC condensed, linker removed
This is one part of a sample in which the strongest signals are shown more often than they occur.

>  <BINDER>
Loc1 (Escherichia coli) (protein) APCALTNVGEQRGTYILKPLSMKGNLTAEKIENTGNIIECTDLQETTNAIKVHFLTQNALKFKVGSRHYIINFPFEYDGKKIELPGKSSYNLEEMLSAINFTIPYSIASVSDSSNTADIFPGTPFPLLFEIEVSSCTGNNTNCNSVRFNYNLNTILQVNLMTHHHHHH

>  <glycan array binding signal (z-score)>
-0.643

$$$$
>  <BINDER>
Epa13 (Candida glabrata) (protein) MGSSHHHHHHSSGLVPRGSHMASDSSENGYAHGCSPSIRAKLKPGLSMEIYSYALRPTDDHCWDSAYLDPMFPRTGYLTHKLLGKAEGIIGPLNFLAKNPACIPAVSTLPLAFHFPKPFTITNFTMLLYGYLSPKKTGKYTFKLLADDLLLMNFGADNAFDCCSHDATKDNIGEYVAYSVWPGVNKNVTVYLESGIYYPLRLFFNNRDAIAQLDFAYYFNDSPIRQTDFSGMFFSIPDSVKCPANI

>  <glycan array binding signal (z-score)>
-0.624

$$$$
>  <BINDER>
Epa11 (Candida glabrata) (protein) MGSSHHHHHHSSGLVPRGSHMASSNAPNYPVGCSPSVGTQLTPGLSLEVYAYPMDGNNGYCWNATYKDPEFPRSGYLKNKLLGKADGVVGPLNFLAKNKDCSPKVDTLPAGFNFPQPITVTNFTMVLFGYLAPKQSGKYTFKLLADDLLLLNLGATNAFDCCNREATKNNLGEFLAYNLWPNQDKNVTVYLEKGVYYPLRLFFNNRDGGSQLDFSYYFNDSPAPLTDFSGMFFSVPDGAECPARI

>  <glycan array binding signal (z-score)>
-0.375

$$$$

Data origin: the supplement of paper PMC8728848
